- Tested on: PANC-1
- assay-protocol: Antiproliferative activity against human PANC1 cells after 48 hrs by propidium iodide staining-based fluorometric analysis
- Format: functional, cell-based
- conditions-used: PANC-1, 48 h
measurement-kind: pIC50
The quantity pIC50 is defined as the negative base-10 logarithm of the molar concentration.

* COc1ccc(-c2nc3sc(-c4ccc(Cl)cc4)cn3n2)cc1 | 5.55
* C/C(=N\O)c1ccc(NC(=O)Cn2nc(-c3ccc(Cl)cc3)nc2N)cc1 | 5.18
* COc1ccc(-c2nc3sc(-c4ccccc4)cn3n2)cc1 | 5.35
* COc1cc(-c2nc3sc(-c4ccc(Cl)cc4)cn3n2)cc(OC)c1OC | 5.46
* COc1cc(-c2nc3sc(-c4ccccc4)cn3n2)cc(OC)c1OC | 5.31

// query Query: pIC50; subject: "CC(=O)c1ccc(NC(=O)Cn2nc(-c3ccccc3)nc2N)cc1"
// result 5.02

// query Query: pIC50; subject: "CC(=O)c1ccc(NC(=O)Cn2nc(-c3ccc(Cl)cc3)nc2N)cc1"
// result 5.13

// query Query: pIC50; subject: "C/C(=N/O)c1ccc(NC(=O)Cn2nc(-c3ccccc3)nc2N)cc1"
// result 5.06

// query Query: pIC50; subject: "Clc1ccc(-c2cn3nc(-c4ccccc4)nc3s2)cc1"
// result 5.28

// query Query: pIC50; subject: "CC(=O)c1ccc(NC(=O)Cn2nc(C(F)(F)F)nc2N)cc1"
// result 5.35

// query Query: pIC50; subject: "c1ccc(-c2nc3sc(-c4ccccc4)cn3n2)cc1"
// result 5.14

// query Query: pIC50; subject: "C/C(=N/O)c1ccc(NC(=O)Cn2nc(C(F)(F)F)nc2N)cc1"
// result 5.46

// query Query: pIC50; subject: "COc1cc(-c2nc(N)n(CC(=O)Nc3ccc(/C(C)=N\O)cc3)n2)cc(OC)c1OC"
// result 5.28
